In this section we review reported Percent Effect values for a set of compounds.
- Tested on: Wolbachia pipientis
- MEASUREMENT NOTES: Anti-Wolbachia Cell-Based Screen
- Assay type: functional
- Parameters: scale not given: in the data most compounds retested in dose-response had high values
- ASSAY CONTEXT: 5 µM
Out of some 48,000 compounds screened, about 13,000 (27%) showed an effect of 50% or more. Some of the results follow.

CCn1ncc(CN2CCN(C(=O)Cn3cc(Br)c(C)n3)CC2)c1C :: 124.7%
CC(NCC1CCN(CCO)CC1)c1ccc(F)c(Cl)c1 (configuration not stated) :: 2.095%
Cc1c(Cn2cc(Cl)c(N)n2)cnn1C :: -4.897%

The compound identified as NC(=O)C(NC(=O)COCCc1ccccc1)c1ccccc1F (configuration not stated) registered its Percent Effect at -15.69%

The compound identified as Cc1cccc(C(C(=O)NCC2(O)CCCCC2)N(C)C)c1 (configuration not stated) registered its Percent Effect at -2.512%

The compound identified as "Fc1cccc2[nH]c(CN3CCc4cncnc4C3)nc12" registered its Percent Effect at 8.027%

The compound identified as Cc1cccc(C(C(=O)NC(C)(C)CN2CCCC2)N(C)C)c1 (configuration not stated) registered its Percent Effect at 106.7%

The compound identified as Cc1ccc(C(C(=O)NCCN2CCCCCC2)N(C)C)cc1 (configuration not stated) registered its Percent Effect at -4.058%

The compound identified as "CCCn1nc2c(cc1=O)CN(Cc1ccccn1)CC2" registered its Percent Effect at -24.61%

The compound identified as "Cc1noc(C)c1CN1CCN(C(=O)CCn2cncn2)CC1" registered its Percent Effect at -2.995%

The compound identified as "Cc1nn(CC(=O)N2CCN(Cc3cccnc3)CC2)c(C)c1Cl" registered its Percent Effect at 2.693%

The compound identified as "Cc1nc(C)c(C(=O)N2CCCN(Cc3cnn(C)c3)CC2)s1" registered its Percent Effect at 16.21%

Value source: ChEMBL document CHEMBL3988442
